system: Pseudomonas aeruginosa; experiment: Antimicrobial activity against mexD::lox-deficient Pseudomonas aeruginosa PAOMxD biofilm by Etest method; type: functional
property_measured: MIC (µg/mL)

* CC(C)(O/N=C(\C(=O)N[C@@H]1C(=O)N2C(C(=O)[O-])=C(C[n+]3ccccc3)CS[C@H]12)c1csc(N)n1)C(=O)O | 1.5
* C[C@@H](O)[C@H]1C(=O)N2C(C(=O)O)=C(SCCNC=N)C[C@H]12 [IMIPENEM ANHYDROUS] | 1.5
* C[C@H]1[C@H](NC(=O)/C(=N\OC(C)(C)C(=O)O)c2csc(N)n2)C(=O)N1S(=O)(=O)O | 2
* NC[C@H]1O[C@H](O[C@H]2[C@H](O)[C@@H](O[C@H]3O[C@H](CO)[C@@H](O)[C@H](N)[C@H]3O)[C@H](N)C[C@@H]2N)[C@H](N)C[C@@H]1O | 1.5
* CO/N=C(\C(=O)N[C@@H]1C(=O)N2C(C(=O)[O-])=C(C[N+]3(C)CCCC3)CS[C@H]12)c1csc(N)n1 [CEFEPIME] | 1.5

====

Each record here notes measured MIC.
tested on: Pseudomonas aeruginosa; test: Antimicrobial activity against mucA::lox, mutS::lox-deficient Pseudomonas aeruginosa PAOMSA biofilm by Etest method; type: functional
property_measured: MIC (µg/mL)

• NC[C@H]1O[C@H](O[C@H]2[C@H](O)[C@@H](O[C@H]3O[C@H](CO)[C@@H](O)[C@H](N)[C@H]3O)[C@H](N)C[C@@H]2N)[C@H](N)C[C@@H]1O [TOBRAMYCIN] = 1.5
• C[C@@H](O)[C@H]1C(=O)N2C(C(=O)O)=C(SCCNC=N)C[C@H]12 [IMIPENEM ANHYDROUS] = 1.5
• CO/N=C(\C(=O)N[C@@H]1C(=O)N2C(C(=O)[O-])=C(C[N+]3(C)CCCC3)CS[C@H]12)c1csc(N)n1 [CEFEPIME] = 1.5
• CC(C)(O/N=C(\C(=O)N[C@@H]1C(=O)N2C(C(=O)[O-])=C(C[n+]3ccccc3)CS[C@H]12)c1csc(N)n1)C(=O)O [CEFTAZIDIME] = 1.5
• C[C@H]1[C@H](NC(=O)/C(=N\OC(C)(C)C(=O)O)c2csc(N)n2)C(=O)N1S(=O)(=O)O [AZTREONAM] = 2

====

test system: Pseudomonas aeruginosa; test: Antimicrobial activity against mutS::lox-deficient Pseudomonas aeruginosa PAOMSA biofilm harboring nfxB C116T mutant gene selected at 1 ug/ml of azithromycin after 1 passages by Etest method; type: functional
property_measured: MIC (µg/mL)

* C[C@H]1[C@H](NC(=O)/C(=N\OC(C)(C)C(=O)O)c2csc(N)n2)C(=O)N1S(=O)(=O)O | 2
* CC(C)(O/N=C(\C(=O)N[C@@H]1C(=O)N2C(C(=O)[O-])=C(C[n+]3ccccc3)CS[C@H]12)c1csc(N)n1)C(=O)O | 1
* NC[C@H]1O[C@H](O[C@H]2[C@H](O)[C@@H](O[C@H]3O[C@H](CO)[C@@H](O)[C@H](N)[C@H]3O)[C@H](N)C[C@@H]2N)[C@H](N)C[C@@H]1O | 1
* O=C(O)c1cn(C2CC2)c2cc(N3CCNCC3)c(F)cc2c1=O | 4
* C[C@@H](O)[C@H]1C(=O)N2C(C(=O)O)=C(SCCNC=N)C[C@H]12 [IMIPENEM ANHYDROUS] | 1
* CO/N=C(\C(=O)N[C@@H]1C(=O)N2C(C(=O)[O-])=C(C[N+]3(C)CCCC3)CS[C@H]12)c1csc(N)n1 [CEFEPIME] | 12

From: ChEMBL document CHEMBL1671651
